Overview of recorded AC50 for various molecules
# Experimental System: POLγA:Y955C (Homo sapiens, UniProt P54098, Y955C)
# Sequence (P54098 1-1239 Y955C): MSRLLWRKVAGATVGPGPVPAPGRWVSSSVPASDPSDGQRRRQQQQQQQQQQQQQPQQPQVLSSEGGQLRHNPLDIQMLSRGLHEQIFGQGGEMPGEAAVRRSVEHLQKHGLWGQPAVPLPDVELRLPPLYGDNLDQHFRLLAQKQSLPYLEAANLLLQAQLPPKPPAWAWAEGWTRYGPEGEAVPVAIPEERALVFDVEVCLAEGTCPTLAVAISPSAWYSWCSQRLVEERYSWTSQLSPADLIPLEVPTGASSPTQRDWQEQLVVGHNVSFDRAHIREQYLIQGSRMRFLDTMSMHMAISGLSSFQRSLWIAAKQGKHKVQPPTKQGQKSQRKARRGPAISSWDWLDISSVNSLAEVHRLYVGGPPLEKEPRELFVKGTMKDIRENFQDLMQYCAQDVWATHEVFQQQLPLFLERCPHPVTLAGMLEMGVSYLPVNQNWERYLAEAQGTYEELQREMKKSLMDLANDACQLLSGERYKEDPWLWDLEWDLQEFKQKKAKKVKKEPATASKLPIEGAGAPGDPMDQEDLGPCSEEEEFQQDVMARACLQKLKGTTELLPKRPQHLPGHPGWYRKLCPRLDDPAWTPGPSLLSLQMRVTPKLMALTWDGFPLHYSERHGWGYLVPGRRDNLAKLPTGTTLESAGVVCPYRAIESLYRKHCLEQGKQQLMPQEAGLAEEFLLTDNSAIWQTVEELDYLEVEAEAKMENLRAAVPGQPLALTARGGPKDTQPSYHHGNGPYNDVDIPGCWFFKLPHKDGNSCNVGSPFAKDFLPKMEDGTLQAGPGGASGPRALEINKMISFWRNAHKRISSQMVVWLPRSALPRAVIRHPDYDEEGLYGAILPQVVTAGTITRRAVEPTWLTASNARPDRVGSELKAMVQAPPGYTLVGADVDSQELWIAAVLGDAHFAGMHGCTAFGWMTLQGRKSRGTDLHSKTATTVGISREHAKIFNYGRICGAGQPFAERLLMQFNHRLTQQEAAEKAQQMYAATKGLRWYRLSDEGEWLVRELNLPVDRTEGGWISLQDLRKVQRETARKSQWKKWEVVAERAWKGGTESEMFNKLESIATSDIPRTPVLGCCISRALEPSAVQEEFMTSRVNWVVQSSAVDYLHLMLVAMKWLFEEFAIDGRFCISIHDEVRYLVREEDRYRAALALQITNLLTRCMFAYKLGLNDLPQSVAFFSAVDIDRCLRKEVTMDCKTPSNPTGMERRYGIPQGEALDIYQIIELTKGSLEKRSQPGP
# Sequence (Q9UHN1 1-485 partner): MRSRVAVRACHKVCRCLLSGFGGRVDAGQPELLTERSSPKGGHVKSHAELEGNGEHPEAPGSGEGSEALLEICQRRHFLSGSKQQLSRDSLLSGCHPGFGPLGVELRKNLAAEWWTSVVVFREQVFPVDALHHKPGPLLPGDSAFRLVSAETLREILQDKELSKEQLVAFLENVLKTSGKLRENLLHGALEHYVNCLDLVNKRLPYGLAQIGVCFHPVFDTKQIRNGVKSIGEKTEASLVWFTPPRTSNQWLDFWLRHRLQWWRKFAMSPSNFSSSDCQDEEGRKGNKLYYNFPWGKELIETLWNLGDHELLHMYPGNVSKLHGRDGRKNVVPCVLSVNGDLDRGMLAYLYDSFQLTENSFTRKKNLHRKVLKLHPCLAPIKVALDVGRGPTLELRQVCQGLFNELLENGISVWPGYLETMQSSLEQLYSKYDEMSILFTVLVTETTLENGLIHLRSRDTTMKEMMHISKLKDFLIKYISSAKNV
# Test Description: DNA polymerization assay, POLγA:Y955C mutant
# Type: biochemical
# Recorded Conditions: stimulation of polymerase activity, primed M13mp18 ssDNA, 37° C. 2 hours
# Protocol: DNA Polymerization Assay to Monitor Effects on Human Wildtype POLγ and Four Disease-Causing Mutant Variants of Human POLγ. The ability of small molecules to stimulate the polymerase activity of POLγ was analyzed in a quantitative fluorescence SYBR Green I assay with fluorescence intensity (FI) readout. […] The assay was performed in the 384-well plate format. Upon addition of compounds, changes in double-stranded DNA synthesis activity can be monitored by following effects on fluorescent intensity. […]
Assay Endpoint: AC50 (µM)

>>> df
                                    molecule  qual  value
 0  Cc1cnc(-c2cccc(NS(=O)(=O)c3cc(C)c(Cl)cc3C)c2)s1     =      1
 1  Cc1cc(S(=O)(=O)Nc2cccc(C(=O)NCc3ccccc3)c2)c(C)cc1Cl     =      4
 2  CC[C@@H]1CCCN1C(=O)c1cccc(NS(=O)(=O)c2cc(C)c(Cl)cc2C)c1     =      2
 3  Cc1cc(S(=O)(=O)Nc2cccc(C(=O)N3CCC[C@H]3C)c2)c(C)cc1Cl     =    0.4
 4  Cc1cc(S(=O)(=O)Nc2cccc(C(=O)N(C)C(C)CO)c2)c(C)cc1Cl (single isomer, unassigned)     =      2
 5  Cc1cc(S(=O)(=O)Nc2cc(F)cc(C(=O)N3CCC[C@H]3C)c2)c(C)cc1Cl     =      2
 6  Cc1cnc(-c2ccc(Cl)c(NS(=O)(=O)c3cc(C)c(Cl)cc3C)c2)s1     >    100
 7  Cc1csc(-c2cccc(NS(=O)(=O)c3cc(C)c(Cl)cc3C)c2)n1     =    0.3
 8  Cc1ccc(C)c(S(=O)(=O)Nc2cccc(C(=O)N3CCCCC3C#N)c2)c1 (centres unmarked)     =      1
 9  Cc1cc(S(=O)(=O)Nc2cccc(-c3nccs3)c2)c(C)cc1Cl     =    0.8
10  Cc1ccc(C)c(S(=O)(=O)Nc2cccc(C(=O)NCC3CC3)c2)c1     =     11
11  Cc1ccc(C)c(S(=O)(=O)Nc2cccc(C(=O)N[C@@H](C)C3CC3)c2)c1     =      3
12  Cc1cc(S(=O)(=O)Nc2ccc3ccn(C(C)C)c3c2)c(C)cc1Cl     =    0.4
13  Cc1cc(S(=O)(=O)Nc2cccc(-c3ncco3)c2)c(C)cc1Cl     =    0.8
14  Cc1ccc(C)c(S(=O)(=O)Nc2cccc(C(=O)N3CCCC[C@H]3C)c2)c1     =      3
15  Cc1cc(S(=O)(=O)Nc2ccc3c(c2)CC(=O)N3)c(C)cc1Cl     =      2
16  Cc1cc(S(=O)(=O)Nc2cccc(-c3nccn3C)c2)c(C)cc1Cl     =    0.5

====

Overview of recorded AC50 for various molecules
# Experimental System: POLγA:A467T (Homo sapiens, UniProt P54098, A467T)
# Test Description: DNA polymerization assay, POLγA:A467T mutant
# Format: biochemical
# Recorded Conditions: stimulation of polymerase activity, primed M13mp18 ssDNA, 37° C. 2 hours; read-out: A467T AC50
Assay Endpoint: AC50

>>> df
                                    molecule                       experimental_system  assay_endpoint     value
 0  COC(=O)c1cnc(-c2cccc(NS(=O)(=O)c3cc(C)c(Cl)cc3C)c2)s1  POLγA:A467T (Homo sapiens, UniProt P54098, A467T)            AC50  > 100 µM
 1  Cc1cc(S(=O)(=O)Nc2csc(-c3ccccn3)n2)c(C)cc1Cl  POLγA:A467T (Homo sapiens, UniProt P54098, A467T)            AC50      2 µM
 2  CC(=O)N1CCN(C(=O)c2cccc(NS(=O)(=O)c3cc(C)ccc3C)c2)CC1  POLγA:A467T (Homo sapiens, UniProt P54098, A467T)            AC50  > 100 µM
 3  COc1ccc(S(=O)(=O)Nc2cccc(C(=O)N3CCSCC3C#N)c2)cc1 (stereo not drawn)  POLγA:A467T (Homo sapiens, UniProt P54098, A467T)            AC50  > 100 µM
 4  Cc1ccc(C)c(S(=O)(=O)Nc2ccc(C(=O)N[C@@H](C)C3CC3)cc2)c1  POLγA:A467T (Homo sapiens, UniProt P54098, A467T)            AC50  > 100 µM
 5  COCCN(C)C(=O)c1cccc(NS(=O)(=O)c2cc(C)c(Cl)cc2C)c1  POLγA:A467T (Homo sapiens, UniProt P54098, A467T)            AC50  > 100 µM
 6  Cc1cc(S(=O)(=O)Nc2cccc(-c3ncc(-c4nnn[nH]4)s3)c2)c(C)cc1Cl  POLγA:A467T (Homo sapiens, UniProt P54098, A467T)            AC50  > 100 µM
 7  Cc1cc(S(=O)(=O)Nc2cccc(C(=O)N3CCC[C@H]3C)c2)c(C)cc1Cl  POLγA:A467T (Homo sapiens, UniProt P54098, A467T)            AC50     12 µM
 8  Cc1cc(S(=O)(=O)Nc2cccc(-c3cc[nH]n3)c2)c(C)cc1Cl  POLγA:A467T (Homo sapiens, UniProt P54098, A467T)            AC50     16 µM
 9  Cc1cc(S(=O)(=O)Nc2cccc(C(=O)N[C@H](C)c3ccccc3)c2)c(C)cc1Cl  POLγA:A467T (Homo sapiens, UniProt P54098, A467T)            AC50  > 100 µM
10  O=S(=O)(Nc1csc(-c2ccccc2)n1)c1ccc2c(c1)CCO2  POLγA:A467T (Homo sapiens, UniProt P54098, A467T)            AC50  > 100 µM
11  Cc1cc(S(=O)(=O)Nc2cccc(C(N)=O)c2)c(C)cc1Cl  POLγA:A467T (Homo sapiens, UniProt P54098, A467T)            AC50  > 100 µM
12  COc1ccccc1-c1nc(NS(=O)(=O)c2cc(C)c(Cl)cc2C)cs1  POLγA:A467T (Homo sapiens, UniProt P54098, A467T)            AC50  > 100 µM
13  C[C@@H]1CCCN1C(=O)c1cccc(NS(=O)(=O)c2ccc(C(F)(F)F)cc2)c1  POLγA:A467T (Homo sapiens, UniProt P54098, A467T)            AC50  > 100 µM
14  Cc1nc2cc(NS(=O)(=O)c3cc(C)c(Cl)cc3C)ccc2o1  POLγA:A467T (Homo sapiens, UniProt P54098, A467T)            AC50  > 100 µM
15  Cc1cc(S(=O)(=O)Nc2nc(-c3ccccc3)no2)c(C)cc1Cl  POLγA:A467T (Homo sapiens, UniProt P54098, A467T)            AC50  > 100 µM
16  Cc1cc(S(=O)(=O)Nc2csc(-c3ccccc3)n2)ccc1Cl  POLγA:A467T (Homo sapiens, UniProt P54098, A467T)            AC50  > 100 µM
17  O=S(=O)(Nc1csc(-c2ccccc2)n1)c1ccc2ncsc2c1  POLγA:A467T (Homo sapiens, UniProt P54098, A467T)            AC50  > 100 µM
